System: Staphylococcus aureus
Details: Concentration 32 ug.mL-1;; ASSAY_TEST Inhibition of Bacterial Growth; detection method Absorption (OD600); MEDIA CAMHB; plate type 384well; NBS; CORNING #3640; time 18 hr
Description: Antibacterial activity against Staphylococcus aureus MRSA ATCC 43300 (CO-ADD:GP_020); MIC in CAMBH media, using NBS plates, by OD(600)
Entries with a potency or affinity are not part of this list.
quantity measured: Inhibition
State the value, then name its unit.

Input: Please look at `NC(=O)Cn1nc2n(CCC(=O)NC3CCCCC3)c(=O)c3ccccc3n2c1=O` and tell me its recorded Inhibition on Staphylococcus aureus.
Output: 4.99%

Input: Please look at `CCOC(=O)c1ccccc1NC(=O)Cn1nc2c(Oc3ccccc3)nccn2c1=O` and tell me its recorded Inhibition on Staphylococcus aureus.
Output: 12.16%

Input: Please look at `COc1cccc(-n2ccn3c(SCC(=O)c4cc(C)c(C)cc4C)nnc3c2=O)c1` and tell me its recorded Inhibition on Staphylococcus aureus.
Output: 15.67%

Input: Please look at CCC(Sc1nnc2c(=O)n(-c3cccc(OC)c3)ccn12)C(=O)Nc1ccccc1C (stereo not given) and tell me its recorded Inhibition on Staphylococcus aureus.
Output: -3.13%

Where these numbers come from: ChEMBL document CHEMBL4513146
